Reference source: paper PMC6694100

Target: PfeA wild-type (Pseudomonas aeruginosa, UniProt Q05098)
Construct: His7 tag with TEV protease site (N, cleaved yes); made in house; host or cells: E. coli C43 (DE3)
Sequence (Q05098 26-746): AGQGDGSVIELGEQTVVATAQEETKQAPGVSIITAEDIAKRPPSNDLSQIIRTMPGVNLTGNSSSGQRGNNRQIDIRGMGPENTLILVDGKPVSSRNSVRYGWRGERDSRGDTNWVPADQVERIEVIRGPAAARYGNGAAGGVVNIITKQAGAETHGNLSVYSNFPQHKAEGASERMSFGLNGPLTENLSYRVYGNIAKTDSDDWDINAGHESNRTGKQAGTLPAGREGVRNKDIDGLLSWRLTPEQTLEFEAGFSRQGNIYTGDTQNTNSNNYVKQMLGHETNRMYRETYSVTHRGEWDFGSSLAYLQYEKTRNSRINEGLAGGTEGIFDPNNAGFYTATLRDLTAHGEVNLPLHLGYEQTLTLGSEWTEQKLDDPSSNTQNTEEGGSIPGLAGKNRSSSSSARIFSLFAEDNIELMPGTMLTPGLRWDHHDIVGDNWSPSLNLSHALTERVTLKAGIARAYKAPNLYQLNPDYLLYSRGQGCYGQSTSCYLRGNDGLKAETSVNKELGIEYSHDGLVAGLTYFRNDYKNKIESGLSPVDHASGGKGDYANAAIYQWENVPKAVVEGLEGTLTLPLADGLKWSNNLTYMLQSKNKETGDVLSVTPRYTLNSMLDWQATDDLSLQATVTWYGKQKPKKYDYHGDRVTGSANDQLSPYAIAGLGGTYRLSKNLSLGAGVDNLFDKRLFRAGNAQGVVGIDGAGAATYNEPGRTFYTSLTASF
Experiment: isothermal titration calorimetry, PfeA wild-type
Type: binding
Conditions: ITC reverse titration (PfeA into Fe^3+-enterobactin), estimate, read-out: K2, reverse titration
experimental_readout: Kd (µM)
// return numeric value only (unit: µM, not printed)

Problem: Which Kd value is on record for O=C(N[C@H]1COC(=O)[C@@H](NC(=O)c2cccc([O-])c2[O-])COC(=O)[C@@H](NC(=O)c2cccc([O-])c2[O-])COC1=O)c1cccc([O-])c1[O-].[Fe+3] [Fe^3+-enterobactin] ?
Result: 4.5
